Test system: CYP enzymes in rat liver microsomes (RLM)
experiment: Inhibition of 20-HETE production in rat liver microsomes (RLM)
Assay type: biochemical
measurementContext: 500 nM
measurementKind: RLM (% inh @ 500 nM) (%)

Take a look at these entries with their results.
>>> print(df.to_string())
                                   compound                                    target  unitlabel  numericreadout
0   CC(=O)NCC1CCN(c2ccc(-c3cn[nH]c3)cc2)CC1  CYP enzymes in rat liver microsomes (RLM)          %           31.42
1  O=C(C1CCCC1)N1CCC(c2ccc(-c3cn[nH]c3)cc2F)CC1  CYP enzymes in rat liver microsomes (RLM)          %           77.16

(a) O=C1CCC(C(=O)N2CCC(c3ccc(-c4cn[nH]c4)c(F)c3F)CC2)CC1
(b) O=C1CCCN1CC1C2CN(c3ccc(-c4cn[nH]c4)cc3)CC12 (stereo not drawn)
(c) O=C(NC1CCCC1)C1CCN(c2ccc(-c3cn[nH]c3)cc2)CC1
Exam item: list the entries in increasing order of RLM (% inh @ 500 nM). I'd appreciate it if you listed the labels in the requested order.
c, b, a

###

target: recombinant CYP4A11 (rCYP4A11) (Homo sapiens (Human), UniProt Q02928)
Sequence (Q02928 5-519): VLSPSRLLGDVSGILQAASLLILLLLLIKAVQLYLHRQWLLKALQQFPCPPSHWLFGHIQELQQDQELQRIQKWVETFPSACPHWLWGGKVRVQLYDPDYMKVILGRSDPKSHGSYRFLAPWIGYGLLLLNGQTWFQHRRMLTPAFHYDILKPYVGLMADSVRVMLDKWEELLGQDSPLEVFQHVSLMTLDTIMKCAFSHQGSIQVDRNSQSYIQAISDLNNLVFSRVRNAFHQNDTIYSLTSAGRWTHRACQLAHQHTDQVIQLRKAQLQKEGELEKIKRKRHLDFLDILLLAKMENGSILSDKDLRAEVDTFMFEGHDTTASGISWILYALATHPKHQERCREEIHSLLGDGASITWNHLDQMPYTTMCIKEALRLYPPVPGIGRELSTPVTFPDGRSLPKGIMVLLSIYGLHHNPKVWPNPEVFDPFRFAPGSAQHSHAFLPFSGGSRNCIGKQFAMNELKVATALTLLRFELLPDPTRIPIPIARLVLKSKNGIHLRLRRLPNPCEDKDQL
experiment: Inhibition of 20-HETE production by recombinant CYP4A11
Assay type: biochemical
measurementContext: read-out: rCYP4A11 (% inh @ 100 nM)
measurementKind: inhibition at 0.1 µM (%)

Take a look at these entries with their results.
>>> df
                                   compound  numericreadout
0  O=C1CCCN1CC1CCN(c2ccc(-c3cn[nH]c3)cc2Cl)CC1            46.3
1  O=C1CCCN1CC1CCN(c2ccc(-c3cn[nH]c3)c(F)c2)CC1            27.8
2  O=C1CCCCN1CC1CCN(c2ccc(-c3cn[nH]c3)cc2)CC1            30.6

(a) O=C1CCCN1Cc1ccc(C2CCN(c3cn[nH]c3)CC2)cc1 [Reference 83, reference compound]
(b) O=C(C1CCCC1)N1CCC(c2ccc(-c3cn[nH]c3)cc2)CC1
// pick larger inhibition at 0.1 µM from pair: a vs b Answer = label.
b

###

Tested on: CYP enzymes in human liver microsomes (HLM)
experiment: Inhibition of 20-HETE production in human liver microsomes (HLM)
Format: biochemical
measurementContext: 500 nM
Method: Experimental principle: The inhibitory activity of 20-HETE production is evaluated by testing the inhibitory effects of the compound on human liver microsomes (HLM), rat liver microsomes (RLM), mouse liver microsomes (MLM), or […] CYP4 subtype enzymes (CYP4F2). […]
measurementKind: HLM (% inh @ 500 nM) (%)

Take a look at these entries with their results.
>>> df
                                   compound       measurementkind  numericreadout
0  O=C1CCCN1CC1CCN(c2ccc(-c3cc[nH]n3)c(F)c2F)CC1  HLM (% inh @ 500 nM)           86.12
1  CCCCCC1CCC(C(=O)N2CCC(c3ccc(-c4cn[nH]c4)c(F)c3F)CC2)CC1 (stereo not drawn)  HLM (% inh @ 500 nM)           70.73
2  C=CCCCCCC(=O)NCC1CCN(c2ccc(-c3cn[nH]c3)cc2)CC1  HLM (% inh @ 500 nM)           85.21
3  O=C1CCCCN1CC1CCN(c2ccc(-c3cn[nH]c3)c(F)c2F)CC1  HLM (% inh @ 500 nM)           89.67

(a) O=C(N1CCCCC1)N1CCN(c2ccc(-c3cn[nH]c3)c(F)c2F)CC1
(b) NC(=O)c1cc(-c2cn[nH]c2)ccc1N1CCC(CN2CCCC2=O)CC1
// pick larger HLM (% inh @ 500 nM) from pair: a vs b Answer = label.
a
(a: 78.05%, b: 41.22%)

###

experiment: Pharmacokinetic (PK) experiment, oral administration in rats
Assay type: in vivo, Male SD rats
measurementContext: male, SD, rat, plasma, 20 mg/kg, read-out: AUC0-24
measurementKind: AUC(0-t) (ng·h/mL)

Take a look at these entries with their results.
>>> print(df.to_string())
                                   compound  unitlabel  numericreadout
0  O=C(C1CCCC1)N1CCC(c2ccc(-c3cn[nH]c3)cc2)CC1    ng·h/mL           68800
1  O=C1CCCN1Cc1ccc(C2CCN(c3cn[nH]c3)CC2)cc1 [Reference 83, reference compound]    ng·h/mL            2630
2  O=C(C1CCN(c2ccc(-c3cn[nH]c3)cc2)CC1)N1Cc2ccccc2C1    ng·h/mL          364000
3  O=C1CCCN1CC1CCN(c2c(F)cc(-c3cn[nH]c3)cc2F)CC1    ng·h/mL          103000

(1) O=C(N1CC=C(c2ccc(-c3cn[nH]c3)c(F)c2F)CC1)N1CCCC1
(2) O=C1CCCCN1CC1CCN(c2ccc(-c3cn[nH]c3)c(F)c2F)CC1
Could you check which of 1 and 2 has a smaller value for AUC(0-t)? Answer = label.
2

###

Test system: CYP enzymes in human liver microsomes (HLM)
experiment: Inhibition of 20-HETE production in human liver microsomes (HLM)
Format: biochemical
measurementContext: 100 nM
measurementKind: HLM (% inh @ 100 nM) (%)

>>> df
                                   compound                                    target       measurementkind  numericreadout
0  O=C(C1CCOC1)N1CCC(c2ccc(-c3cn[nH]c3)cc2F)CC1 (centres unmarked)  CYP enzymes in human liver microsomes (HLM)  HLM (% inh @ 100 nM)           87.74
1  O=C(N1CCN(c2ccc(-c3cn[nH]c3)cc2F)CC1)N1CC2CCCC2C1 (centres unmarked)  CYP enzymes in human liver microsomes (HLM)  HLM (% inh @ 100 nM)           87.90
2  O=C(C1CCCC(O)C1)N1CCC(c2ccc(-c3cn[nH]c3)cc2F)CC1 (centres unmarked)  CYP enzymes in human liver microsomes (HLM)  HLM (% inh @ 100 nM)           85.60
3  O=C(C1CCCCC1O)N1CCC(c2ccc(-c3cn[nH]c3)cc2F)CC1 (single isomer, unassigned) [Compound 149b]  CYP enzymes in human liver microsomes (HLM)  HLM (% inh @ 100 nM)           83.42
4  COC1(C(=O)N2CCC(c3ccc(-c4cn[nH]c4)cc3)CC2)CCCCC1  CYP enzymes in human liver microsomes (HLM)  HLM (% inh @ 100 nM)           84.56
5  O=C(N1CCC(c2ccc(-c3cn[nH]c3)cc2)CC1)C1(O)CCCCC1  CYP enzymes in human liver microsomes (HLM)  HLM (% inh @ 100 nM)           88.13
6  O=C(C1CCN(c2ccc(-c3cn[nH]c3)cc2F)CC1)N1CC2CCCC2C1 (centres unmarked)  CYP enzymes in human liver microsomes (HLM)  HLM (% inh @ 100 nM)           74.69
7  O=C(N1CCC(c2ccc(-c3cn[nH]c3)cc2F)CC1)C1(F)CCCCC1  CYP enzymes in human liver microsomes (HLM)  HLM (% inh @ 100 nM)           88.15

###

Tested on: CYP enzymes in human liver microsomes (HLM)
experiment: Inhibition of 20-HETE production in human liver microsomes (HLM)
Format: biochemical
measurementContext: 500 nM
measurementKind: HLM (% inh @ 500 nM) (%)

Take a look at these entries with their results.
                                   molecule  unitlabel  numericreadout
0  O=C(C1CCN(c2ccc(-c3cn[nH]c3)cc2)CC1)N1Cc2ccccc2C1          %           69.53
1  O=C1CCCN1CC1CCN(c2ccc(-c3cn[nH]c3)c(F)c2)CC1          %           75.59
2  O=C(N1CCC(c2ccc(-c3cn[nH]c3)cc2F)CC1)N1CC2CCCC2C1 (centres unmarked)          %           91.17

(A) O=C1CCCCN1CC1CCN(c2c(F)cc(-c3cn[nH]c3)cc2F)CC1
(B) Clc1ccc(CC2CCN(c3ccc(-c4cn[nH]c4)cc3)CC2)cc1
Could you check which of A and B has a smaller value for HLM (% inh @ 500 nM)? Answer = label.
B
(B: 57.77%, A: 88.87%)
